- System: PC-3 prostate
- measurement.notes: NCI tumour cell line growth inhibition, 48 h; in the data active means GI50 below about 0.43 µM; inactive means the rest
Answer with one of the outcomes active, inactive

Reference set, count: 2
[
  {
    "mol.smiles": "Cc1cc(Cl)ccc1OCC(=O)Nc1nc2c(Cl)cccc2s1",
    "assigned.class": "inactive"
  },
  {
    "mol.smiles": "C=C(C)[C@@H]1CC[C@]2(COCCCN)CC[C@]3(C)[C@H](CC[C@@H]4[C@@](C)(CCCNCCCN)[C@H](C(=C)C)CC[C@]43C)[C@@H]12",
    "assigned.class": "inactive"
  }
]

Exercise: What is the recorded call for this compound in the test? CC(C)CNc1nc(-c2ccccc2Cl)nc2ccccc12
Solution: inactive

Exercise: What is the recorded call for this compound in the test? CN(C)C/C=C/C(=O)Nc1ccc(C(=O)N[C@@]2(C)CCC[C@@H](Nc3ncc(Cl)c(-c4c[nH]c5ccccc45)n3)C2)nc1
Solution: active
